Values from PubChem BioAssay (NCI)

Task for the reader: assign each of the following compounds its reported TGI.
System: KM12 colon
PROCEDURE_DETAILS: NCI tumour cell line growth inhibition, 48 h

COMPOUND	METRIC	REPORTED_VALUE
COc1ccc(OC)c(/C=N/N=C(\N)NO)c1	TGI	> 100 µM

Hi, could you look up TGI for each item in my list?
1. COc1cccc(C2SC(N)=Nc3c2c(C)nn3C(=O)Cc2ccccc2)c1 (configuration not stated)
2. CCOP(=O)(OCC)C(C(=O)OC)C(=O)C(=O)Nc1cccc(O)c1 (configuration not stated)
3. O=C1C2C3CC(C4C5C=CC(C5)C34)C2C2C3CC(C12)C1C2C=CC(C2)C31 (configuration not stated)
4. Cc1ccc(C)n2c1nc1ccccc12
5. O=C(Nc1ccc(Cl)cc1Cl)OC(Cn1cncn1)c1ccc(Cl)cc1Cl (configuration not stated)
6. CCCc1cc(COC)c(C#N)c(=O)[nH]1

["> 100 µM", "> 100 µM", "> 100 µM", "> 100 µM", "31 µM", "> 100 µM"]

Hi, could you look up TGI for each item in my list?
1. COC(=O)c1cc(NC(=O)Cc2c[nH]c3ccccc23)cn1C
2. C#CCN(c1ccc(C(=O)N[C@@H](CCC(=O)N[C@H](CCC(=O)O)C(=O)O)C(=O)O)cc1)C1CCc2cc3nc(CO)[nH]c(=O)c3cc21 (some centres not stated)
3. CCOC(=O)c1nc2ccc(C(F)(F)F)cc2nc1NCc1ccc(OC)c(OC)c1
4. c1ccc(CNCCN(CCNCc2ccccn2)Cc2ccc3ccccc3c2)nc1
5. CC(C)C1NC(=O)CC(c2ccccc2)N(N=O)C1c1ccccc1 (configuration not stated)
6. CC(=O)NC(NCCN)(c1ccccc1)c1ccccc1
7. CCN(CC)CCN(C)c1ccc(CO)c2c1C(=O)c1ccccc1S2=O (configuration not stated)
8. C=CCOC(=O)C1=C(C)NC2=N[C@H](CCCCCCCCC)C[C@@H]3CCC1N23 (some centres not stated)

1: > 100 µM; 2: > 100 µM; 3: > 100 µM; 4: 4.85 µM; 5: > 100 µM; 6: > 100 µM; 7: 4.55 µM; 8: > 100 µM

Hi, could you look up TGI for each item in my list?
1. O=C(/C=C/c1cccc([N+](=O)[O-])c1)c1ccc([N+](=O)[O-])cc1
2. CSCSCC(CO)NC(=O)/C(C)=C\c1c(C)[nH]c(=O)[nH]c1=O (configuration not stated)

1. > 100 µM
2. > 250 µM
